# target or system: T1, full length recombinant human 2N4R tau (human, UniProt P10636 1-758)
# T1 construct: bought from rPeptide; pHrodo Red maleimide-labelled where it stands in uptake assays; also called tau1-441; full length tau
# T1 sequence (P10636 other isoform, or with tags, fused parts or gaps limits assumed): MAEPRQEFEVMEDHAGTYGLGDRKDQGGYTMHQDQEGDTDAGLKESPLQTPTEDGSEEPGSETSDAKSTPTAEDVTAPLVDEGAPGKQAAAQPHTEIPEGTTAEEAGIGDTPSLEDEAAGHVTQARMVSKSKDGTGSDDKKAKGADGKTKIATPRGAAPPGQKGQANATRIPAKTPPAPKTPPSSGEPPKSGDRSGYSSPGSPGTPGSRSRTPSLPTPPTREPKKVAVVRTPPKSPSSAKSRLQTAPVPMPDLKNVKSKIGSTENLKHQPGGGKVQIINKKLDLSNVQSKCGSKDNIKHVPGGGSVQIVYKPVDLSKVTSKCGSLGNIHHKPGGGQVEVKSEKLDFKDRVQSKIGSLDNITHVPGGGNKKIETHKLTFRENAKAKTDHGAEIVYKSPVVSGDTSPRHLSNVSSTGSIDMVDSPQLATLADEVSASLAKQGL
# assay: SPR SCK, IgG on Protein A, tau in flow
# key: entry, value: Kd

Please review the entries below; each comes with its answer.
| binder | Kd |
| --- | --- |
| #44 VH2VK3 humanised hIgG1 (antibody, V domains shown, also called VH2Vκ3) VH: QSVQESGPGLVKPSETLSLTCTVSGIDLSSYAMAWVRQAPGKGLEWIGCIDRRGGTFYASWVKGRFTISKTSTTVDLQMTSLTAEDTATYFCARDSGAFDPWGQGTLVTVSS VL: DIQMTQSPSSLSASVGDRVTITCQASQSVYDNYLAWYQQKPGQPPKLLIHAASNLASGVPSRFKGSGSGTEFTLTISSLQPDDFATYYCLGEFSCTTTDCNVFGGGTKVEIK | 4.52 nM |
| #44 VH1VK2 humanised hIgG1 (antibody, V domains shown, also called VH1Vκ2) VH: QSVQESGGGLVKPSETLSLTCTVSGIDLSSYAMAWVRQAPGKGLEWIGCIDRRGGTFYASWVKGRFTISKTSTTVDLKMTSLTAEDTATYFCARDSGAFDPWGQGTLVTVSS VL: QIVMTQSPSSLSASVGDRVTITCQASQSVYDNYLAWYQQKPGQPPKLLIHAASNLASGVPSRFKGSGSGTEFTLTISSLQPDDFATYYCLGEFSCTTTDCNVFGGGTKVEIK | 4.26 nM |
| #44 VH5VK4 humanised hIgG1 (antibody, V domains shown, also called VH5Vκ4) VH: QVQLQESGPGLVKPSETLSLTCTVSGIDLSSYAMAWVRQAPGKGLEWIGCIDRRGGTFYASWVKGRFTISRDNSKNTLDLQMTSLTAEDTATYYCARDSGAFDPWGQGTLVTVSS VL: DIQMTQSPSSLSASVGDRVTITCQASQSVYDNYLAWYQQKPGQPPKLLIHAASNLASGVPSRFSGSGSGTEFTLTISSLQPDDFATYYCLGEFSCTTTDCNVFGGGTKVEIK | 9.63 nM |
| #44 VH3VK4 humanised hIgG1 (antibody, V domains shown, also called VH3Vκ4; Clone VH3VK4 (B)) VH: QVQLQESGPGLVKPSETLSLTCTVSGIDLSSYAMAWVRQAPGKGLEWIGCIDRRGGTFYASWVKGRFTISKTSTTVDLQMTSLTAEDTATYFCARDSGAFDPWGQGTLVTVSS VL: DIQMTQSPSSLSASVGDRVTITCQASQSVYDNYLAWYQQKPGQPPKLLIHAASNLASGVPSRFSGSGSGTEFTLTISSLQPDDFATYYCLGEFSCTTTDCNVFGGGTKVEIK | 7.02 nM |
| #44 VH4VK1 humanised hIgG1 (antibody, V domains shown, also called VH4Vκ1) VH: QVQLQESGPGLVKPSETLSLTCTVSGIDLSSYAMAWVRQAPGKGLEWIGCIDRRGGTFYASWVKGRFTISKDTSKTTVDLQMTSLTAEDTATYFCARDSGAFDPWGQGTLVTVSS VL: QIVMTQSPSSLSASVGDRVTITCQASQSVYDNYLAWYQQKPGQPPKLLIHAASNLASRVPSRFKGSGSGTEFTLTISSLQCDDFATYYCLGEFSCTTTDCNVFGGGTEVVIK | 6.81 nM |

Quick check: Kd of #44 VH5VK1 humanised hIgG1 (antibody, V domains shown, also called VH5Vκ1) VH: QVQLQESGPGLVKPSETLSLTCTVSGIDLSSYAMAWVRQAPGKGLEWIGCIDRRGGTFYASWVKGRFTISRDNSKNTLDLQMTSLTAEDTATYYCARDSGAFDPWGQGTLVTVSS VL: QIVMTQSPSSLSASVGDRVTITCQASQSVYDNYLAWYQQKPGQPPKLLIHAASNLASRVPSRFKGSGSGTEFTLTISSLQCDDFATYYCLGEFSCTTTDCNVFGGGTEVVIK ?
8.31 nM

Quick check: Kd of #44 VH1VK4 humanised hIgG1 (antibody, V domains shown, also called VH1Vκ4) VH: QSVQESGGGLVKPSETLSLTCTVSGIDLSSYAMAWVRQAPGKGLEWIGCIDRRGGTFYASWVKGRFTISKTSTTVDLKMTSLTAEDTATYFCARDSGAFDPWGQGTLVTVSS VL: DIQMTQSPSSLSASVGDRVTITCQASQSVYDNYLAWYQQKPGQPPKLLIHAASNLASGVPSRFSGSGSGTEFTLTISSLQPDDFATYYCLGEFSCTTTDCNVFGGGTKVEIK ?
4.15 nM

Quick check: Kd of #44 VH2VK2 humanised hIgG1 (antibody, V domains shown, also called VH2Vκ2) VH: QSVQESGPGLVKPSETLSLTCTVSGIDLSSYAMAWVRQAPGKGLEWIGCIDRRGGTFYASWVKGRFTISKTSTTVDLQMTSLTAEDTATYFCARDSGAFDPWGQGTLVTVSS VL: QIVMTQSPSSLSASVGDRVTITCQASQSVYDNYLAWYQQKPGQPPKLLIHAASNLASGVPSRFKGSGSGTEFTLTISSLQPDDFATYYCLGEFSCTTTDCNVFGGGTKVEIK ?
5 nM

Quick check: Kd of #44 VH3VK1 humanised hIgG1 (antibody, V domains shown, also called VH3Vκ1) VH: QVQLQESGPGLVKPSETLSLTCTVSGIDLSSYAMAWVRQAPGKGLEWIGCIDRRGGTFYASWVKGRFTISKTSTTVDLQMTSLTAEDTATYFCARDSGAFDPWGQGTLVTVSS VL: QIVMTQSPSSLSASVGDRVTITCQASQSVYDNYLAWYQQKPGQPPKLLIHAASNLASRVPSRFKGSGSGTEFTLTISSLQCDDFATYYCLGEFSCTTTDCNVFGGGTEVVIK ?
4.35 nM

Quick check: Kd of #44 VH3VK2 humanised hIgG1 (antibody, V domains shown, also called VH3Vκ2) VH: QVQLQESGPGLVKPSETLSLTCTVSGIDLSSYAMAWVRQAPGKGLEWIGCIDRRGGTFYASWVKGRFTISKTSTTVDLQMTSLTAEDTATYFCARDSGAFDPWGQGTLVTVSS VL: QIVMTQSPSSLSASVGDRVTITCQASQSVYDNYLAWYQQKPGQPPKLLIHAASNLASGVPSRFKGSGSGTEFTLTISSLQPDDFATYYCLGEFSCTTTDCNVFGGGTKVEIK ?
7.64 nM

Origin of the recorded values: patent US20250270301A1
